system: MT4; test: Cytotoxic concentration required to reduce the viability of normal uninfected MT-4 cells; assay type: functional; details: Homo sapiens
Measured CC50 accompanies every entry in the list below.
Please state the figure in µM; there is no need to write the unit.

For orientation, consider the following solved cases.
- compound: "CCOCn1c(Cc2ccccc2)c(C(C)C)c(=O)n(C(=O)c2ccc(OP(=O)(OCCSC(=O)C(C)(C)C)OCC3C=CC(n4cc(C)c(=O)[nH]c4=O)O3)cc2)c1=O (stereo not drawn)"
  target-desc: "MT4"
  display-unit: "µM"
  CC50: 35
- compound: "CCc1c(Cc2cc(C)cc(C)c2)n(COCc2ccc(OCc3ccccc3)cc2)c(=O)[nH]c1=O"
  target-desc: "MT4"
  display-unit: "µM"
  CC50: 12

Exercise: What CC50 value was documented for this compound, CCc1c(Cc2cc(C)cc(C)c2)n(COC/C=C/c2ccc(O[P@](=O)(OCCSC(=O)C(C)(C)C)OC[C@@H]3C=C[C@H](n4cc(C)c(=O)[nH]c4=O)O3)cc2)c(=O)[nH]c1=O ?
Solution: 35
